Target: Focal adhesion kinase 1 (Homo sapiens) (UniProt Q05397)
Sequence (Q05397 whole entry, looked up): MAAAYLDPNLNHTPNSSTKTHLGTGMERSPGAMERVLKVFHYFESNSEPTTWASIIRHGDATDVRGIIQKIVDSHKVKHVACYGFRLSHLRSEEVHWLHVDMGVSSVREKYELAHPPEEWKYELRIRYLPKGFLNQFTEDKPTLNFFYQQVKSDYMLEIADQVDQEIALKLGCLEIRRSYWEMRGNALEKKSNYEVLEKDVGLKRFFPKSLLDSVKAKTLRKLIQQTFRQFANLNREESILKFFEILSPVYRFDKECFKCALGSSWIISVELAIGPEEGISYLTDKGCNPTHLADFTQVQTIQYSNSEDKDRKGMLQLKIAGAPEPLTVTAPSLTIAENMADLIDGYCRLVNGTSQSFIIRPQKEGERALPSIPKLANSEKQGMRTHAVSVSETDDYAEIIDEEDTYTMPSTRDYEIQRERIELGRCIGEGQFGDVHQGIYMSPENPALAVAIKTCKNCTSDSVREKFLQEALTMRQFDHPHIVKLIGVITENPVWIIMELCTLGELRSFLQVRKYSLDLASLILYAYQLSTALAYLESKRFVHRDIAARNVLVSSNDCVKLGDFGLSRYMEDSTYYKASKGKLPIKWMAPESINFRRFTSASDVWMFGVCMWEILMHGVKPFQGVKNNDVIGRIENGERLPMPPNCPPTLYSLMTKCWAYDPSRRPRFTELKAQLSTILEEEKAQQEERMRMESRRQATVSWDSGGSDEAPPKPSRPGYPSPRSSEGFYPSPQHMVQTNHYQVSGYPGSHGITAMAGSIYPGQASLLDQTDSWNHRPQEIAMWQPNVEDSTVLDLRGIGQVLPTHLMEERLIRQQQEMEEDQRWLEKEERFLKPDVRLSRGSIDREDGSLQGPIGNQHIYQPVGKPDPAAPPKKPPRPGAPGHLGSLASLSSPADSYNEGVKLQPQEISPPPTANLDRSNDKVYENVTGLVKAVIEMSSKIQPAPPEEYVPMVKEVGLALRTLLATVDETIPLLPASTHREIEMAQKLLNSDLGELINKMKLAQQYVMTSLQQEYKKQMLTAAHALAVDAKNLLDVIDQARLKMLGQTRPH
Test Details: small-molecule microarray binders of FAK, primary screen, biochemical, 635/667 nm fluorescence, BSA, DTT (AID 1130);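 further: composite of spot emission at 667 nm and signal to noise over triplicate slides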
Reported Conditions: PTK2 binding, 635 nm fluorescence, higher = more signal
Reported Property: composite z-score
Give only the figure.

Looking up `CC(C)C[C@@H]1NC(=O)[C@H]2C[C@@H](C(=O)NCCCCCC[N+](C)(C)C)[C@@H](c3ccc(O)cc3)N2C1=O` , I found its composite z-score recorded as -0.188

Looking up `C=CCNC(=O)[C@@H]1[C@H]2C(=O)O[C@H](c3ccccc3)[C@H](c3ccccc3)N2[C@H](c2ccc(OCCO)cc2)[C@@]12C(=O)N(C(=O)OCCOC)c1ccc(C#CC3(O)CCCCCC3)cc12` , I found its composite z-score recorded as 0.262

Looking up `Cc1ccc(S(=O)(=O)N2[C@@H](c3ccccc3)C(C(=O)O)=CC[C@H]2c2ccccc2)cc1` , I found its composite z-score recorded as 0.431

Looking up C=CC[C@@]1(C(=O)NCC(O)CO)N=C(c2ccc(OCCCO)cc2)O[C@@H]1c1ccccc1CN=[N+]=[N-] (some centres not stated) , I found its composite z-score recorded as 0.77

Looking up `O=C1C[C@@](C(=O)NCCN2CCOCC2)(c2ccc([N+](=O)[O-])cc2)[C@@H](c2ccc(CO)cc2)N1C1CCCCC1` , I found its composite z-score recorded as -0.442

Looking up `CCN1C(C)=C(C(=O)OC)[C@@H](c2ccccc2)N2C(=O)[C@@]3(C(=O)OC)O[C@@]12[C@@H]1C(=O)N(c2ccccc2)C(=O)[C@@H]13` , I found its composite z-score recorded as 0.231

Looking up `CC(=O)NCCCC[C@@H]1NC(=O)[C@H]2C[C@@H](C(=O)NCCCCCCN(C)C)[C@@H](c3cccc(OCCO)c3)N2C1=O` , I found its composite z-score recorded as 1.15
